system: HCT116; assay: MTT cell viability assay, HCT116; type: cell-based; conditions: Homo sapiens, HCT-116, 72 hours, read-out: IC50 (nM), antiproliferative effect
metric: IC50 (nM)
Write the number in nM without appending the unit.

INPUT: Sample CC(=O)N[C@H](C)[C@@H](O)[C@@H](C)[C@@H]1OC(=O)/C=C/C=C(C)\C=C\[C@]2(C)CCC=C[C@@H]2/C=C(C)/C=C/[C@H]1C — what was its IC50?
OUTPUT: 52.7
